- System: SAS
- EXPERIMENT DESCRIPTION: IC50 (cell viability, 72 h) (ln(µM))
OUTCOME MEASURE: IC50 (ln)
In your answer, state the number alone without any accompanying words.

Take a look at these entries with their results.
TEST SMILES: CN(C)C/C=C/C(=O)Nc1ccc(C(=O)Nc2cccc(Nc3ncc(Cl)c(-c4c[nH]c5ccccc45)n3)c2)cc1
TARGET ENTITY: SAS
OUTCOME MEASURE: IC50 (ln)
NUMBER: -1.01
//
TEST SMILES: CCc1cnn2c(NCc3ccc[n+]([O-])c3)cc(N3CCCC[C@H]3CCO)nc12
TARGET ENTITY: SAS
OUTCOME MEASURE: IC50 (ln)
NUMBER: -4.47

Would you kindly share the measured IC50 (ln) for "CO[C@H]1C[C@@H]2CC[C@@H](C)[C@@](O)(O2)C(=O)C(=O)N2CCCC[C@H]2C(=O)O[C@H]([C@H](C)C[C@@H]2CC[C@@H](O)[C@H](OC)C2)CC(=O)[C@H](C)/C=C(\C)[C@@H](O)[C@@H](OC)C(=O)[C@H](C)C[C@H](C)/C=C/C=C/C=C/1C" ?
-0.895

====

Listed below: IC50 (ln) values for each entry.
- System: SCC-9
- EXPERIMENT DESCRIPTION: IC50 (cell viability, 72 h) (ln(µM))
I only need the number, thanks.

# example entries with known answers
COMPOUND: CCC1=C[C@@H]2CN(C1)Cc1c([nH]c3ccccc13)[C@@](C(=O)OC)(c1cc3c(cc1OC)N(C)[C@H]1[C@@](O)(C(=O)OC)[C@H](OC(C)=O)[C@]4(CC)C=CCN5CC[C@]31[C@@H]54)C2 [Vinorelbine]
IC50 (ln): -2.4

COMPOUND: CCc1c2c(nc3ccc(O)cc13)-c1cc3c(c(=O)n1C2)COC(=O)[C@]3(O)CC [SN-38]
IC50 (ln): -0.268

COMPOUND: Cc1c2oc3c(C)ccc(C(=O)N[C@@H]4C(=O)N[C@H](C(C)C)C(=O)N5CCC[C@H]5C(=O)N(C)CC(=O)N(C)[C@@H](C(C)C)C(=O)O[C@@H]4C)c3nc-2c(C(=O)N[C@@H]2C(=O)N[C@H](C(C)C)C(=O)N3CCC[C@H]3C(=O)N(C)CC(=O)N(C)[C@@H](C(C)C)C(=O)O[C@@H]2C)c(N)c1=O [Dactinomycin]
IC50 (ln): -2.9

COMPOUND: C/C=C1\NC(=O)[C@H]2CSSCC/C=C/[C@H](CC(=O)N[C@H](C(C)C)C(=O)N2)OC(=O)[C@H](C(C)C)NC1=O [Romidepsin]
IC50 (ln): -3.68

The record that follows has no IC50 (ln) shown yet.
Give recorded IC50 (ln) with SCC-9 for the following compound: CC(C)C[C@H](NC(=O)[C@H](Cc1ccccc1)NC(=O)c1cnccn1)B(O)O [Bortezomib]
-4.18

====

- System: ORL-207
- EXPERIMENT DESCRIPTION: IC50 (cell viability, 72 h) (ln(µM))
Listed molecules paired with reported IC50 (ln)
Form field (numeric): enter value without unit.

# example entries with known answers
TEST SMILES: CC[C@]1(O)C[C@@H]2CN(CCc3c([nH]c4ccccc34)[C@@](C(=O)OC)(c3cc4c(cc3OC)N(C)[C@H]3[C@@](O)(C(=O)OC)[C@H](OC(C)=O)[C@]5(CC)C=CCN6CC[C@]43[C@@H]65)C2)C1
OUTCOME MEASURE: IC50 (ln)
NUMBER: -6.16

TEST SMILES: Cc1[nH]c2ccccc2c1CCNCc1ccc(/C=C/C(=O)NO)cc1
OUTCOME MEASURE: IC50 (ln)
NUMBER: -2.37

TEST SMILES: CC[C@@]1(O)C(=O)OCc2c1cc1n(c2=O)Cc2cc3c(CN(C)C)c(O)ccc3nc2-1
OUTCOME MEASURE: IC50 (ln)
NUMBER: -1.86

What value of IC50 (ln) has been recorded for this entry: "CCc1cnn2c(NCc3ccc[n+]([O-])c3)cc(N3CCCC[C@H]3CCO)nc12"
-3.83

====

- System: SCC-9
- EXPERIMENT DESCRIPTION: IC50 (cell viability, 72 h) (ln(µM))
Reported IC50 (ln) values for the following compounds.
Note: the reply should be a number with no unit written.

COMPOUND: CC[C@]1(O)C[C@@H]2CN(CCc3c([nH]c4ccccc34)[C@@](C(=O)OC)(c3cc4c(cc3OC)N(C)[C@H]3[C@@](O)(C(=O)OC)[C@H](OC(C)=O)[C@]5(CC)C=CCN6CC[C@]43[C@@H]65)C2)C1
NUMBER: -1.75

COMPOUND: COCC[n+]1c2c(n(Cc3cnccn3)c1C)C(=O)c1ccccc1C2=O [Sepantronium bromide]
NUMBER: -6.15

COMPOUND: CN(C)C/C=C/C(=O)Nc1ccc(C(=O)Nc2cccc(Nc3ncc(Cl)c(-c4c[nH]c5ccccc45)n3)c2)cc1
NUMBER: -0.456

COMPOUND: CCNC(=O)c1noc(-c2cc(C(C)C)c(O)cc2O)c1-c1ccc(CN2CCOCC2)cc1
NUMBER: -2.72

What value of measured IC50 (ln) is listed for "CC[C@@]1(O)C(=O)OCc2c1cc1n(c2=O)Cc2cc3c(CN(C)C)c(O)ccc3nc2-1" ?
1.79

====

A collection of compounds and their measured IC50 (ln)
- Tested on: SAS
- EXPERIMENT DESCRIPTION: IC50 (cell viability, 72 h) (ln(µM))
Respond using a number only.

Here is how some compounds turned out for IC50 (ln).
COMPOUND: CCc1c2c(nc3ccc(O)cc13)-c1cc3c(c(=O)n1C2)COC(=O)[C@]3(O)CC [SN-38]
NUMBER: -5.93
--
COMPOUND: CC[C@@H]1C(=O)N(C)c2cnc(Nc3ccc(C(=O)NC4CCN(C)CC4)cc3OC)nc2N1C1CCCC1 [BI-2536]
NUMBER: -1.93
--
COMPOUND: CC(C)C[C@@H](C=O)NC(=O)[C@H](CC(C)C)NC(=O)[C@H](CC(C)C)NC(=O)OCc1ccccc1 [MG-132]
NUMBER: -1.28

Consider now this further compound.
Form field: reported IC50 (ln) of CC(C)C[C@H](NC(=O)[C@H](Cc1ccccc1)NC(=O)c1cnccn1)B(O)O [Bortezomib]
-5.88

====

- Tested on: SCC-9
- EXPERIMENT DESCRIPTION: IC50 (cell viability, 72 h) (ln(µM))
Known IC50 (ln) of a selection of compounds
Respond with the number and no other words.

Please review the following examples before continuing.
TEST SMILES: CN[C@@H]1C[C@H]2O[C@@](C)([C@@H]1OC)n1c3ccccc3c3c4c(c5c6ccccc6n2c5c31)C(=O)NC4
IC50 (ln): -1.81
--
TEST SMILES: CC[C@@H]1C(=O)N(C)c2cnc(Nc3ccc(C(=O)N[C@H]4CC[C@H](N5CCN(CC6CC6)CC5)CC4)cc3OC)nc2N1C(C)C
IC50 (ln): -0.541

Kindly consider the entry below.
Consider the compound "CCc1cnn2c(NCc3ccc[n+]([O-])c3)cc(N3CCCC[C@H]3CCO)nc12" and give its measured IC50 (ln).
-1.35

====

- Tested on: ORL-214
- EXPERIMENT DESCRIPTION: IC50 (cell viability, 72 h) (ln(µM))
OUTCOME MEASURE: IC50 (ln)
Note: the reply should be a number with no unit written.

Previously resolved entries follow.
TEST SMILES: CCc1cnn2c(NCc3ccc[n+]([O-])c3)cc(N3CCCC[C@H]3CCO)nc12
TARGET ENTITY: ORL-214
NUMBER: -4.09
--
TEST SMILES: COc1ncc(-c2ccc3nccc(-c4ccnnc4)c3c2)cc1NS(=O)(=O)c1ccc(F)cc1F
TARGET ENTITY: ORL-214
NUMBER: -3.91

Please look at the following compound next.
ORL-214 / IC50 (ln) / "CCC1=C[C@@H]2CN(C1)Cc1c([nH]c3ccccc13)[C@@](C(=O)OC)(c1cc3c(cc1OC)N(C)[C@H]1[C@@](O)(C(=O)OC)[C@H](OC(C)=O)[C@]4(CC)C=CCN5CC[C@]31[C@@H]54)C2" : value?
-3.96

====

- System: ORL-207
- EXPERIMENT DESCRIPTION: IC50 (cell viability, 72 h) (ln(µM))
Listed below: IC50 (ln) values for each entry.
Give a plain numeric answer without units written out.

Some entries whose results are on file:
TEST SMILES: CCC1=C[C@@H]2CN(C1)Cc1c([nH]c3ccccc13)[C@@](C(=O)OC)(c1cc3c(cc1OC)N(C)[C@H]1[C@@](O)(C(=O)OC)[C@H](OC(C)=O)[C@]4(CC)C=CCN5CC[C@]31[C@@H]54)C2
TARGET ENTITY: ORL-207
IC50 (ln): -4.86
//
TEST SMILES: CCc1c2c(nc3ccc(O)cc13)-c1cc3c(c(=O)n1C2)COC(=O)[C@]3(O)CC
TARGET ENTITY: ORL-207
IC50 (ln): -5.13

Now, please, on to the next compound.
Field request: IC50 (ln) | item: "CC[C@@H]1C(=O)N(C)c2cnc(Nc3ccc(C(=O)NC4CCN(C)CC4)cc3OC)nc2N1C1CCCC1"
-2.92
